target: recombinant human Meningioma Expressed Antigen 5 (MGEA5), also referred to as O-GlcNAcase (OGA) (Homo sapiens)
Construct: Full length OGA enzyme was purchased at OriGene (cat #TP322411); purchased OriGene TP322411
experimentSummary: OGA biochemical assay (inhibition of FM-GlcNAc hydrolysis, fluorescence)
details: read-out: Enzymatic hOGA, pIC50 (converted)
experimentalReadout: log10(IC50) (log10 of the value in nM)
Note the log scale: values are log10 of IC50 expressed in nM.

{"compound": "CC(c1ccc2c(n1)OCCO2)N1CCC(Oc2ncc(C#N)cc2F)CC1 (centres unmarked)", "log10(IC50)": 2.60}
{"compound": "Cc1cc(OC2CCN([C@H](C)c3nc4c(cc3F)OCCO4)CC2)nc(C)n1 (single isomer, unassigned)", "log10(IC50)": 2.30}
{"compound": "Cc1cc(OC2CCN(C(C)c3cc4nc(C)sc4cc3F)CC2)cc(C)n1 (centres unmarked)", "log10(IC50)": 1.20}
{"compound": "Cc1cc(OC2CCN(C(C)c3ccc4c(n3)OCCO4)CC2)cc(C(F)F)n1 (centres unmarked)", "log10(IC50)": 1.50}

Q: Please give the measured log10(IC50) for this compound: Cc1cncc(OC2CCN(C(C)c3ccc4c(n3)OCCO4)CC2)n1 (centres unmarked)
Ans: 1.90

Q: Please give the measured log10(IC50) for this compound: COc1cc(COC2CCN(C(C)c3nc4c(cc3F)OCCO4)CC2)cc(C)n1 (centres unmarked)
Ans: 1.00

Q: Please give the measured log10(IC50) for this compound: COc1cc(OC2CCN(C(C)c3ccc4c(n3)OCCO4)CC2)ccn1 (centres unmarked)
Ans: 1.50

Q: Please give the measured log10(IC50) for this compound: Cc1cc(OC2CCN(C(C)c3ccc4sc(C)nc4n3)CC2)cc(C)n1 (centres unmarked)
Ans: 1.80

* * *

target: recombinant human Meningioma Expressed Antigen 5 (MGEA5), also referred to as O-GlcNAcase (OGA) (Homo sapiens, UniProt O60502)
Construct: Full length OGA enzyme was purchased at OriGene (cat #TP322411); purchased OriGene TP322411
Sequence (O60502 whole entry): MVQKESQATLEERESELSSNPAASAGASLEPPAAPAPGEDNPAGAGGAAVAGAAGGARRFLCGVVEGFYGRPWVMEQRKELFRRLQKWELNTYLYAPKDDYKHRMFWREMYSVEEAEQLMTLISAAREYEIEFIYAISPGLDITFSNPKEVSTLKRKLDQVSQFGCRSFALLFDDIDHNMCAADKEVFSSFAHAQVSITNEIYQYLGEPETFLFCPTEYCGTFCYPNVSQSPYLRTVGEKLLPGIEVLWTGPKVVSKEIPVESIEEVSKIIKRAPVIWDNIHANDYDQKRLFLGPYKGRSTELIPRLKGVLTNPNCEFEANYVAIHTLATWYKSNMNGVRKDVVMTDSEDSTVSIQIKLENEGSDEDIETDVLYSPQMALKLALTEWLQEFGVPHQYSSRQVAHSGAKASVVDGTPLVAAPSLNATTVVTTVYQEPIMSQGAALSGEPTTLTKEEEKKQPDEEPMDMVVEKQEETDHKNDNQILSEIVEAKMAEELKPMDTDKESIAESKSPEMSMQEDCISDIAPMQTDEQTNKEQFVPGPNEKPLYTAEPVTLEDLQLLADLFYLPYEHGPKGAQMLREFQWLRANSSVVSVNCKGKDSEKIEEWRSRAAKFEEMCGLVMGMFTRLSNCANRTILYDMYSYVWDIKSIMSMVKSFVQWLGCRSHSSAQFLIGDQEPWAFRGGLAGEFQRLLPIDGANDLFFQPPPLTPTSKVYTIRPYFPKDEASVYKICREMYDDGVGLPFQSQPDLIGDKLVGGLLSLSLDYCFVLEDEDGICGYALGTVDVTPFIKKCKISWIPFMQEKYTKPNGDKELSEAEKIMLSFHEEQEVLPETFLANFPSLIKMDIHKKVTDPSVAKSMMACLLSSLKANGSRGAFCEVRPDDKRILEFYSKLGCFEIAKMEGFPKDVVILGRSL
experimentSummary: OGA biochemical assay (inhibition of FM-GlcNAc hydrolysis, fluorescence)
details: read-out: Enzymatic hOGA, pIC50 (converted)
experimentalReadout: log10 of IC50 (log10 of the value in nM)
Note the log scale: values are log10 of IC50 expressed in nM.

Use these answered entries as a reference point.
{"molecule": "Cc1cccnc1OC1CCN(C(C)c2ccc3c(n2)OCCO3)CC1 (stereo not drawn)", "experimentalReadout": "log10 of IC50", "recordedResult": 2.60}
{"molecule": "CC(c1nc2c(cc1F)OCCO2)N1CCC(Oc2ccnc(C#N)c2)CC1 (stereo not drawn)", "experimentalReadout": "log10 of IC50", "recordedResult": 1.20}
{"molecule": "Cc1cc(OC2CCN([C@H](C)c3ccc4c(n3)OCC4)CC2)cc(C)n1 (single isomer, unassigned)", "experimentalReadout": "log10 of IC50", "recordedResult": 1.20}
{"molecule": "COc1cc(OC2CCN(C(C)c3ccc4c(n3)OCCO4)CC2)cc(C)n1 (single isomer, unassigned) [Compound 54]", "experimentalReadout": "log10 of IC50", "recordedResult": 1.10}
{"molecule": "Cc1ccc(NC2CCN(C(C)c3nc4c(cc3F)OCCO4)CC2)cn1 (stereo not drawn)", "experimentalReadout": "log10 of IC50", "recordedResult": 1.40}

Q: Please give the measured log10 of IC50 for this molecule: Cc1ccc(OC2CCN(C(C)c3nc4c(cc3F)OCCO4)CC2)nc1 (stereo not drawn)
Ans: 1.20

Q: Please give the measured log10 of IC50 for this molecule: Cc1cc(OC2CCN(C(C)c3cnc4c(c3)OCC4)CC2)cc(C)n1 (stereo not drawn)
Ans: 3.10

Q: Please give the measured log10 of IC50 for this molecule: Cc1ncc(NC2CCN(C(C)c3nc4c(cc3F)OCCO4)CC2)cn1 (stereo not drawn)
Ans: 1.30

Q: Please give the measured log10 of IC50 for this molecule: Cc1ccc(OC2CCN(C(C)c3ccc4c(n3)OCCO4)CC2)nn1.Cl (stereo not drawn)
Ans: 2.30
